biological target: T1, canine NGF tagged at the C-terminus with the Flag tag (canine, UniProt A0A8I3PYI3 122-241); test: SPR off-rate screen, Fab-SASA on BSA chip
T1 construct: mature; Expressed with baculovirus technology; also called feline NGF (processed form identical)
T1 sequence (A0A8I3PYI3 entry or part of it): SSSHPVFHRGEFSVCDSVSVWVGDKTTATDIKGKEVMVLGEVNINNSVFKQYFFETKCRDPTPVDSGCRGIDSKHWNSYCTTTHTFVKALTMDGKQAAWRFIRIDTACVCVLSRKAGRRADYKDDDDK
Consider the following binders and their measured Ratio WT-kd/clone-kd readings.
Lab note: jot down the number only; don't add units.

Please look up its Ratio WT-kd/clone-kd: felinized clone 101 Fab-SASA variant S30P (VL) (Fab, V domains shown, not shown: small tags and cut ends) VH: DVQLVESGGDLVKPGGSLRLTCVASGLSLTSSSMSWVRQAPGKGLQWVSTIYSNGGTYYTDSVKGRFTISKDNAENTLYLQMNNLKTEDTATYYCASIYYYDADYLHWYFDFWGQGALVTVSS VL: EIQMTQSPTSLSASVGDRVTITCRASEGIPNNLSWYQQTPGKAPKLLIYATSNLHSGVPSRFSGSGSGTDFTLTISSLQPEDFATYYCQQGYKWPLTFGGGTKLEITR
1.41

Please look up its Ratio WT-kd/clone-kd: felinized clone 101 Fab-SASA variant N53L (VL) (Fab, V domains shown, not shown: small tags and cut ends) VH: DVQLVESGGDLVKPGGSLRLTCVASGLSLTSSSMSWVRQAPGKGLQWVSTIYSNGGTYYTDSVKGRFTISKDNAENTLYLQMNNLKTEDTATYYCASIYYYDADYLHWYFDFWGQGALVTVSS VL: EIQMTQSPTSLSASVGDRVTITCRASEGISNNLSWYQQTPGKAPKLLIYATSLLHSGVPSRFSGSGSGTDFTLTISSLQPEDFATYYCQQGYKWPLTFGGGTKLEITR
1.41

Please look up its Ratio WT-kd/clone-kd: felinized clone 101 Fab-SASA variant S97T (VH) (Fab, V domains shown, not shown: small tags and cut ends, Fab-SASA in conditioned medium) VH: DVQLVESGGDLVKPGGSLRLTCVASGLSLTSSSMSWVRQAPGKGLQWVSTIYSNGGTYYTDSVKGRFTISKDNAENTLYLQMNNLKTEDTATYYCATIYYYDADYLHWYFDFWGQGALVTVSS VL: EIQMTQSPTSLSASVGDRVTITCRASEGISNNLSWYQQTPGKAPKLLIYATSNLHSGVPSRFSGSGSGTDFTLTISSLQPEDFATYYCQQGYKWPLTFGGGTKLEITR
1.32
